assay: Oral bioavailability in human; format: ADME, organism-based; conditions: in vivo
experimental-endpoint: bioavailability
# output: numeric value plus its unit

Item: C[C@@H]1CN(CC(=O)Nc2ccc3c(c2)Cc2cccc(-c4cc(=O)cc(N5CCOCC5)o4)c2S3)C[C@H](C)O1 | bioavailability: 37%

* * *

assay: Solubility of compound in PBS buffer; format: physicochemical
experimental-endpoint: solubility

Item: COc1cc2ncc3c(c2cc1-c1cn(C)nc1C)n(-c1c(F)cncc1OC)c(=O)n3C | solubility: 93 µg/mL

* * *

test: Inhibition of DNA-PK (unknown origin); set-up: species or system Homo sapiens
experimental-endpoint: IC50 (µM)
Please give a number only; it is taken to be in µM.

# compound, IC50 [µM]
measured = [
    ("COc1cc2ncc3c(c2cc1-c1cn(C)nc1C)n(-c1c(F)cncc1OC)c(=O)n3C [LARTESERTIB]", 0.6),
]

Then there is this compound:
Item: CN1CCN(CCC(=O)Nc2ccc3c(c2)Sc2cccc(-c4cc(=O)cc(N5CCOCC5)o4)c2S3)CC1 | IC50: 9.1

* * *

biological target: UniProt Q13315; assay: Inhibition of ATM (unknown origin)
Sequence (Q13315 whole entry): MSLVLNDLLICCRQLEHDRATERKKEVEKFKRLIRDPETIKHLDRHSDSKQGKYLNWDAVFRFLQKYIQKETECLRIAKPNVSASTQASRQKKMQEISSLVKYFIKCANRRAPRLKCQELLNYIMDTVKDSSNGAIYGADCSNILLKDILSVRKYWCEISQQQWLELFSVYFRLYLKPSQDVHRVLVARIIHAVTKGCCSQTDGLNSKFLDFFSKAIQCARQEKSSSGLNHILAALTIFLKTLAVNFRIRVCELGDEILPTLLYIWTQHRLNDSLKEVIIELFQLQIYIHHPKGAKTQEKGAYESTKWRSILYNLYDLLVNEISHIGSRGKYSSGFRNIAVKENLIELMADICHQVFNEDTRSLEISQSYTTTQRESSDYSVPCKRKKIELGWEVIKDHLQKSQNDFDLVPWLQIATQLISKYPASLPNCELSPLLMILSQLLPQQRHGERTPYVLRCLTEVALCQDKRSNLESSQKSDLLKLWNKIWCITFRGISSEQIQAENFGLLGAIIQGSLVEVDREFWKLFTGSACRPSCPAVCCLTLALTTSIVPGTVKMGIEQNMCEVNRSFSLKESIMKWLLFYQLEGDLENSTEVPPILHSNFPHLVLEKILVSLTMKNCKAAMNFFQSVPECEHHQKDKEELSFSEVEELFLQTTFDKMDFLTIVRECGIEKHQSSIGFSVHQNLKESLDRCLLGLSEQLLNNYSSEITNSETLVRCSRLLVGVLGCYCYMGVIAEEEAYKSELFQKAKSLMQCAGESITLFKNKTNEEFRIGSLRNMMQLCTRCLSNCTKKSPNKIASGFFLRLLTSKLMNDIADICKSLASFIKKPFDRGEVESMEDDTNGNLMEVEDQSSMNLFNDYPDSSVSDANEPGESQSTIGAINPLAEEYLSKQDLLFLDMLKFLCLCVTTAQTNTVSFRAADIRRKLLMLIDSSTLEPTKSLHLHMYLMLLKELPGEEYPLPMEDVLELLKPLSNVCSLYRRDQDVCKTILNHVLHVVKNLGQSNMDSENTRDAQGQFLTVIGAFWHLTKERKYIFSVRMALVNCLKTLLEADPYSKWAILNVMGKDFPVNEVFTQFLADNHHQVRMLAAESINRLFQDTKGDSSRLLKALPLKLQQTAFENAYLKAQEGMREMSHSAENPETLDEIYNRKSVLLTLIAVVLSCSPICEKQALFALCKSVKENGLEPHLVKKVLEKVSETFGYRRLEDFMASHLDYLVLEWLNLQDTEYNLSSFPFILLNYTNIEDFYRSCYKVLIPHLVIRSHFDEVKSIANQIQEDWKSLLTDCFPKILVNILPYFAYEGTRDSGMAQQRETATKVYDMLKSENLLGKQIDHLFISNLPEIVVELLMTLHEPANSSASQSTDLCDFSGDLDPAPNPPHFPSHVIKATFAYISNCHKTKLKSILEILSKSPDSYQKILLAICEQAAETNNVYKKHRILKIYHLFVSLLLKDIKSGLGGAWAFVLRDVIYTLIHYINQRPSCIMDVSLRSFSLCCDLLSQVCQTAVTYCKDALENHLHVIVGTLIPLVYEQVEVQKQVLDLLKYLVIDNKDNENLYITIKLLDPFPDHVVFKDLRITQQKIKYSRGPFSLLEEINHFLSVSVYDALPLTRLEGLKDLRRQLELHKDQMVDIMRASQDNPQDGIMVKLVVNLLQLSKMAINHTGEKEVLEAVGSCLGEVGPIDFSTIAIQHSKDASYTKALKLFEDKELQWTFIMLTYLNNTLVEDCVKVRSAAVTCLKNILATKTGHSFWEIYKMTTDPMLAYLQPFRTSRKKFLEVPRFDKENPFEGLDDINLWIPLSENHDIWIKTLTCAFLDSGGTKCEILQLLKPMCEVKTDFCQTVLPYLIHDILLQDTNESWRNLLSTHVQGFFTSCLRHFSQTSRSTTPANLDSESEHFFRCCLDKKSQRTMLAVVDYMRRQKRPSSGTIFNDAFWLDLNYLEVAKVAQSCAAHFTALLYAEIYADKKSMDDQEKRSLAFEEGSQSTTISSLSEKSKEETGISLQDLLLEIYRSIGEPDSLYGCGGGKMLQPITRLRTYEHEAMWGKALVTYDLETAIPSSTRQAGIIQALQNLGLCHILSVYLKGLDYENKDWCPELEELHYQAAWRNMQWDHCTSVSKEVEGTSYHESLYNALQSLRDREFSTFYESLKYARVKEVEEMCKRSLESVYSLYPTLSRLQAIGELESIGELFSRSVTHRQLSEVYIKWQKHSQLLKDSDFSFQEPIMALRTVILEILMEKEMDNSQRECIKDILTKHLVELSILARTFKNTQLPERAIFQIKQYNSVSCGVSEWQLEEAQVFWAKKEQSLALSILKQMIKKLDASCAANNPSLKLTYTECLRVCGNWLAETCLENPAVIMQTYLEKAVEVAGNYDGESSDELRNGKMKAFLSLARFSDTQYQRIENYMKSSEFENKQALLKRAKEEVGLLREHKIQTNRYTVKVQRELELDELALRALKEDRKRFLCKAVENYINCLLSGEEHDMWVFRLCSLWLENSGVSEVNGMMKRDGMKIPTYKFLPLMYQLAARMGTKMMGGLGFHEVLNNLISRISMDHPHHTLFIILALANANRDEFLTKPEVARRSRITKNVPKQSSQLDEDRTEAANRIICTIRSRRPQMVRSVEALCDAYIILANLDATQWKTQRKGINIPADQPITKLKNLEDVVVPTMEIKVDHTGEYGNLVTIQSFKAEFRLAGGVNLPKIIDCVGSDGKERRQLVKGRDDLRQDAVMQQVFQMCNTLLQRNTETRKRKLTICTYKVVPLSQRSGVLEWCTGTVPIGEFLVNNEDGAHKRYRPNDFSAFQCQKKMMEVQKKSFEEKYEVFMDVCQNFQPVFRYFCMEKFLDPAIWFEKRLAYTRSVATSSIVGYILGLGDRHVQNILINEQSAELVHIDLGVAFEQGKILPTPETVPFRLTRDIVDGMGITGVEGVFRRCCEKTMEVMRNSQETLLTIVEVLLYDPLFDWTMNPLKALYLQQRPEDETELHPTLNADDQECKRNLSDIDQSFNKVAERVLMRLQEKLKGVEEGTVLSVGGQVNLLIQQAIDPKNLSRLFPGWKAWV
experimental-endpoint: IC50 (nM)
Please give a number only; it is taken to be in nM.

Item: CC(C)n1c(=O)n(C)c2cnc3cc(F)c(-c4ccc(OCCCN5CCCCC5)nc4)cc3c21 [AZD-1390] | IC50: 7.8
